Origin of the recorded values: the supplement of paper PMC8671470

System: THP-1
METHOD DESCRIPTION: cell viability (% survival relative to DMSO control, bortezomib = 0%); higher = less cytotoxic
CONDITION: 10 nM; 72 h
ENDPOINT: cell viability (%)
Give a bare numeral; the unit % is implied.

> print(dat)
                                   molecule        endpoint  test.value
1  Cc1ccc(-c2cc(C(F)(F)F)nn2-c2ccc(S(N)(=O)=O)cc2)cc1  cell viability         102

-- ask Consider the molecule CC/C=C\C[C@H]1C(=O)CC[C@@H]1CC(=O)OC [Methyl jasmonate] and give its measured cell viability.
-- reply 111

-- ask Consider the molecule `CCn1c(=Cc2cccc[n+]2CC)sc(=C2Sc3ccccc3N2C)c1=O` and give its measured cell viability.
-- reply 105

-- ask Consider the molecule `CC(C)(C)c1ccc(S(=O)(=O)NCc2ccc(C(=O)Nc3cccnc3)cc2)cc1` and give its measured cell viability.
-- reply 95.9
